The following compounds are shown together with reported relative enzymatic activity values.
- test_system: MurA (UniProt Q3YX52)
- Sequence (Q3YX52 whole entry): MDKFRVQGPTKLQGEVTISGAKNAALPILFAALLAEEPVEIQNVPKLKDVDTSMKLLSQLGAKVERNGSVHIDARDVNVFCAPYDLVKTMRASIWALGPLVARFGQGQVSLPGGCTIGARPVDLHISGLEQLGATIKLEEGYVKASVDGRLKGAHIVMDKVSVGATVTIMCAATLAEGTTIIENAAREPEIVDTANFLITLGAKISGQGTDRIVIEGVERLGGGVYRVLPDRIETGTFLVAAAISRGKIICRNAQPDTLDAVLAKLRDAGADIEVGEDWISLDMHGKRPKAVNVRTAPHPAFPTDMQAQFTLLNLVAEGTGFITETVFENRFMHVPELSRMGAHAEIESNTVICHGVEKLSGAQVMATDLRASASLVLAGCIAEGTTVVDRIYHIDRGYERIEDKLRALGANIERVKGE
- test_name: relative enzymatic activity vs untreated control (fraction); higher = less inhibition
- recorded_conditions: 100 µM; incubation time: 2 h at 37 C
measurement_label: relative enzymatic activity

[
  {
    "compound": "CCN1CCN(C(=O)NC(C(=O)NC2C(=O)N3C2SC(C)(C)C3C(=O)[O-])c2ccccc2)C(=O)C1=O.[Na+] (stereo not drawn)",
    "numeric_result": 0.612
  },
  {
    "compound": "CCOC(=O)CCC(=O)O[C@H]1[C@H](O[C@@H]2[C@@H](C)[C@H](O[C@H]3C[C@@](C)(OC)[C@@H](O)[C@H](C)O3)[C@@H](C)C(=O)O[C@H](CC)[C@@](C)(O)[C@H](O)[C@@H](C)C(=O)[C@H](C)C[C@@]2(C)O)O[C@H](C)C[C@@H]1N(C)C",
    "numeric_result": 0.816
  },
  {
    "compound": "CCC(C)CCCCC(=O)NC(CCN)C(=O)NC(C(=O)NC(CCN)C(=O)NC1CCNC(=O)C(C(C)O)NC(=O)C(CCN)NC(=O)C(CCN)NC(=O)C(CC(C)C)NC(=O)C(Cc2ccccc2)NC(=O)C(CCN)NC1=O)C(C)O.O=S(=O)(O)O (stereo not drawn)",
    "numeric_result": 0.649
  },
  {
    "compound": "NC(C(=O)NC1C(=O)N2C(C(=O)O)=C(Cl)CSC12)c1ccccc1 (stereo not drawn)",
    "numeric_result": 0.0755
  },
  {
    "compound": "CC1CCC2(C)C(C=O)=CCCC2C1(C)CC1OC(O)C(=O)C12CO2 (stereo not drawn)",
    "numeric_result": 0.662
  },
  {
    "compound": "CO[C@@H]1[C@@H](OC(=O)c2ccc(C)[nH]2)[C@@H](O)[C@@H](Oc2ccc3c(c2C)OC(=O)[C@H](NC(=O)c2[nH]cc(CC(=O)Nc4cc5ccc(O[C@@H]6OC(C)(C)[C@H](OC)[C@@H](OC(=O)c7ccc(C)[nH]7)[C@H]6O)c(C)c5oc4=O)c2C)C3)CC1(C)C",
    "numeric_result": 1.09
  },
  {
    "compound": "C=C1c2cccc(O)c2C(=O)C2=C(O)C3(O)C(=O)C(C(N)=O)=C(O)C(N(C)C)C3C(O)C12.Cl (stereo not drawn)",
    "numeric_result": 0.0701
  },
  {
    "compound": "COC1C=COC2(C)Oc3c(C)c(O)c4c(O)c(c(C=NN5CCN(C6CCCC6)CC5)c(O)c4c3C2=O)NC(=O)C(C)=CC=CC(C)C(O)C(C)C(O)C(C)C(OC(C)=O)C1C (stereo not drawn)",
    "numeric_result": 0.144
  },
  {
    "compound": "Cc1cc(O)c(C(=O)NC(C(=O)NC2C(=O)N3C(C(=O)O)=C(CSc4nnnn4C)CSC23)c2ccc(O)cc2)cn1 (stereo not drawn)",
    "numeric_result": 0.346
  },
  {
    "compound": "NC(=O)N/N=C/c1ccc([N+](=O)[O-])o1",
    "numeric_result": 0.504
  },
  {
    "compound": "CC[C@H](C)C[C@H](C)CCCCCCCCC(=O)N[C@H]1C[C@@H](O)[C@@H](NCCN)NC(=O)[C@@H]2[C@@H](O)CCN2C(=O)[C@H]([C@H](O)CCN)NC(=O)[C@H]([C@H](O)[C@@H](O)c2ccc(O)cc2)NC(=O)[C@@H]2C[C@@H](O)CN2C(=O)[C@H]([C@@H](C)O)NC1=O",
    "numeric_result": 0.522
  },
  {
    "compound": "CN(C)c1ccc(O)c2c1CC1CC3C(N(C)C)C(O)=C(C(N)=O)C(=O)C3(O)C(O)=C1C2=O.Cl (stereo not drawn)",
    "numeric_result": 0.0902
  },
  {
    "compound": "COc1c(N2CCNC(C)C2)c(F)cc2c(=O)c(C(=O)O)cn(C3CC3)c12 (stereo not drawn)",
    "numeric_result": 0.804
  },
  {
    "compound": "NCc1ccccc1CC(=O)NC1C(=O)N2C(C(=O)O)=C(CSc3nnnn3CC(=O)O)CSC12 (stereo not drawn)",
    "numeric_result": 0.0878
  },
  {
    "compound": "Cl.NC1CCN(c2c(F)cc3c(=O)c(C(=O)O)cn(C4CC4)c3c2Cl)C1 (stereo not drawn)",
    "numeric_result": 0.737
  },
  {
    "compound": "COC1=C(N)C(=O)c2nc(-c3nc(C(=O)O)c(C)c(-c4ccc(OC)c(OC)c4O)c3N)ccc2C1=O",
    "numeric_result": 0.072
  },
  {
    "compound": "CO/N=C(\\C(=O)N[C@@H]1C(=O)N2C(C(=O)O)=C(CSC(=O)c3ccco3)CS[C@H]12)c1csc(N)n1",
    "numeric_result": 0.0403
  },
  {
    "compound": "C[C@H]1c2cccc(O)c2C(=O)C2=C(O)[C@]3(O)C(=O)[C@@H](C(N)=O)C(=O)[C@@H](N(C)C)[C@@H]3[C@@H](O)[C@@H]21",
    "numeric_result": 0.673
  },
  {
    "compound": "NC(=O)NN=Cc1ccc([N+](=O)[O-])o1",
    "numeric_result": 0.491
  },
  {
    "compound": "O=c1[nH]c(=O)n(C2CC(O)C(CO)O2)cc1F (stereo not drawn)",
    "numeric_result": 0.856
  },
  {
    "compound": "O=C1C=CC(=O)N1",
    "numeric_result": 0.171
  },
  {
    "compound": "CCn1cc(C(=O)O)c(=O)c2cc(F)c(N3CCNC(C)C3)c(F)c21.Cl (stereo not drawn)",
    "numeric_result": 0.728
  },
  {
    "compound": "CCC1OC(=O)C(C)C(=O)C(C)C(OC2OC(C)CC(N(C)C)C2O)C(C)(OC)CC(C)C(=O)C(C)C2N(CCCCn3cnc(-c4cccnc4)c3)C(=O)OC12C (stereo not drawn)",
    "numeric_result": 0.668
  },
  {
    "compound": "NC[C@H]1O[C@H](O[C@H]2[C@H](O)[C@@H](O[C@H]3O[C@H](CO)[C@@H](O)[C@H](N)[C@H]3O)[C@H](N)C[C@@H]2N)[C@H](N)C[C@@H]1O",
    "numeric_result": 0.747
  },
  {
    "compound": "NC(=O)[C@@H]1C(=O)C[C@@H]2C[C@@H]3Cc4cccc(O)c4C(=O)[C@@H]3C(=O)[C@]2(O)C1=O",
    "numeric_result": 0.328
  },
  {
    "compound": "CN(C)[C@@H]1C(=O)[C@@H](C(N)=O)C(=O)[C@@]2(O)C(=O)[C@H]3C(=O)c4c(O)ccc(Cl)c4[C@@H](O)[C@H]3C[C@@H]12",
    "numeric_result": 0.336
  },
  {
    "compound": "CC(NCCCc1cccc(C(F)(F)F)c1)c1cccc2ccccc12.Cl (stereo not drawn)",
    "numeric_result": 0.749
  },
  {
    "compound": "CCC1OC(=O)C(C)C(OC2CC(C)(OC)C(O)C(C)O2)C(C)C(OC2OC(C)CC(N(C)C)C2O)C(C)(O)CC(C)CN(C)C(C)C(O)C1(C)O (stereo not drawn)",
    "numeric_result": 0.766
  }
]
